B1: CPEB3 Ribozyme (parent)
chain: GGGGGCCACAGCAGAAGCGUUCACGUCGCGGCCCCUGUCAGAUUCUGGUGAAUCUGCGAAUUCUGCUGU

# Variants of: B1
# assayProcedure: self-cleavage, relative activity (ratio to wild type); higher = more cleavage; co-transcriptional
This listing pairs variants with measured self-cleavage.
assayReadout: self-cleavage

mut="U36C C57A" result=0.251
mut="A15G U69C" result=1.05
mut="C6G G28U" result=0.0241
mut="C6G A60U" result=0.137
mut="C57A G68A" result=0.367
mut="U38C G65C" result=0.519
mut="A16C A42C" result=0.245
mut="A40C A42U" result=0.363
mut="U20G G65U" result=0.262
mut="G17U A52C" result=0.5
mut="U44C C45A" result=0.998
mut="G41A A42C" result=0.588
mut="G50C C66G" result=0.853
mut="G3C C45A" result=0.0668
mut="G58C A59G" result=0.982
mut="U21A U46C" result=0.926
mut="G30A U61A" result=0.418
mut="U36C G48A" result=0.94
mut="G41A U46C" result=0.706
mut="G5C C45G" result=0.178
mut="A51U U64C" result=0.788
mut="G11A G68C" result=0.947
mut="G11A C29A" result=0.26
mut="C7A A13U" result=0.274
mut="G58U C66U" result=1.02
mut="U38A C66U" result=0.917
mut="G5A U20C" result=0.109
mut="C54A C57A" result=0.378
mut="A51U C66U" result=0.981
mut="A40C U62G" result=0.352
mut="G4C A52G" result=0.53
mut="A13G U43C" result=0.785
mut="C7U C9U" result=1.06
mut="G37A C45U" result=0.351
mut="G48U C57A" result=0.316
mut="A23C U61A" result=0.832
mut="G14U G50C" result=0.616
mut="G30U C35G" result=0.213
mut="G4A U20G" result=0.0767
mut="G19A C35G" result=0.183
mut="A40U U69G" result=0.987
mut="G17C G65A" result=0.158
mut="G2C C57G" result=0.0289
mut="G41C U64G" result=0.426
mut="C45G U55C" result=0.487
mut="C6U G58A" result=0.981
mut="A13C G30C" result=0.451
mut="G25A C66A" result=0.196
mut="G14C C34G" result=0.236
mut="G14U A51G" result=0.842
mut="C35G A60U" result=0.217
mut="G1C A42C" result=0.274
mut="G3A U44A" result=0.54
mut="C12U G31A" result=0.905
mut="A10U C57U" result=0.369
mut="G30A U69A" result=1
